Target: Cytochrome P450 3A4 (Homo sapiens)
Recorded endpoint: IC50 (µM)
API: value field is a number in µM; no unit string.

Which IC50 is reported for this molecule? CC(C)(C1CCN(C(=O)c2cc(F)ccc2S(C)(=O)=O)CC1)S(=O)(=O)c1cccc(C(F)(F)F)c1
10

---

Consider the following compounds; for each one, report its inhibition at 10 µM.
Molecular target: hERG (KCNH2) (Homo sapiens, UniProt Q12809)
Sequence (Q12809 whole entry): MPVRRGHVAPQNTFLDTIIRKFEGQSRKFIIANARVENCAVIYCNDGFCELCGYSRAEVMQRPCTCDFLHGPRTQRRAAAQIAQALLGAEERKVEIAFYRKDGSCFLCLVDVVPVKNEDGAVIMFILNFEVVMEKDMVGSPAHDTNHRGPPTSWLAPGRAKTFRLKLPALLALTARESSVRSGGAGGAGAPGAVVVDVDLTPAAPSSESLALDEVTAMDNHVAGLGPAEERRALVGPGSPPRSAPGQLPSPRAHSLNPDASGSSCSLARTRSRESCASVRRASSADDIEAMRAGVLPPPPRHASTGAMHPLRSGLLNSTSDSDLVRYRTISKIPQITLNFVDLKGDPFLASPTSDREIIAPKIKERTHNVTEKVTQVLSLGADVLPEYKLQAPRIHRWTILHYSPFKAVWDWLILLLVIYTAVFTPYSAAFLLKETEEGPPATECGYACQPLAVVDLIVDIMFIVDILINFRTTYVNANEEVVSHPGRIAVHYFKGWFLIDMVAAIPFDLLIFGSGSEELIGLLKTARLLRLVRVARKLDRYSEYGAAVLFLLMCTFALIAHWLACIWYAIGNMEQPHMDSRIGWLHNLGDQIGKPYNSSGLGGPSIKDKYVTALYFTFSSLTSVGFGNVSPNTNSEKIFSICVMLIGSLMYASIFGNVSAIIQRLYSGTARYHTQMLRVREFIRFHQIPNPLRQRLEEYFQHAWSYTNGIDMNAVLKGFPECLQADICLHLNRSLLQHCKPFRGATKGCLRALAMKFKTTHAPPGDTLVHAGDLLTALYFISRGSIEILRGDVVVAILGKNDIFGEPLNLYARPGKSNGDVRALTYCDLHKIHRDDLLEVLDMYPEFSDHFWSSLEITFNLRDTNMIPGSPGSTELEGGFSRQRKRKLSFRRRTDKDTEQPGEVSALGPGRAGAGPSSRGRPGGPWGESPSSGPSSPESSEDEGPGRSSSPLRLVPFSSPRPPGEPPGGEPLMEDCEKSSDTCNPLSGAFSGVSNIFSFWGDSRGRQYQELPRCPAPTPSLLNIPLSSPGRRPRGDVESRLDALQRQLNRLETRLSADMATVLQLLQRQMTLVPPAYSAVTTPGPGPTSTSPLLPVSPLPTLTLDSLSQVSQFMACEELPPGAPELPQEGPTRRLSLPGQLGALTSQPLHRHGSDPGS
Assay: Displacement of [35S]MK-499 from human ERG at 10 uM relative to control
Details: probe [35S]MK-499
API: value field is a number in %; no unit string.

Which inhibition at 10 µM is reported for this compound? CS(=O)(=O)c1ccc(C(=O)N2CCC(N(C3CC3)S(=O)(=O)c3cccc(C(F)(F)F)c3)CC2)c(F)c1
78

Now try CS(=O)(=O)c1ccc(C#N)cc1C(=O)N1CCC(N(C2CC2)S(=O)(=O)c2cccc(C(F)(F)F)c2)CC1 .
41

Now try NC(=O)c1ccc(C(=O)N2CCC(N(C3CC3)S(=O)(=O)c3cccc(C(F)(F)F)c3)CC2)c(C(F)(F)F)c1 .
32

Now try CS(=O)(=O)c1cc(C#N)ccc1C(=O)N1CCC(N(C2CC2)S(=O)(=O)c2cccc(C(F)(F)F)c2)CC1 .
66

Now try CS(=O)(=O)c1ccc(C(=O)N2CCC(N(C3CC3)S(=O)(=O)c3cccc(C(F)(F)F)c3)CC2)c(OC(F)(F)F)c1 .
63

Now try CS(=O)(=O)c1ccc(Cl)c(C(=O)N2CCC(N(C3CC3)S(=O)(=O)c3cccc(C(F)(F)F)c3)CC2)c1 .
49

Now try NC(=O)c1ccc(C(=O)N2CCC(N(C3CC3)S(=O)(=O)c3cccc(C(F)(F)F)c3)CC2)c(OC(F)(F)F)c1 .
41

---

Consider the following compounds; for each one, report its pEC50.
Molecular target: Nuclear receptor subfamily 1 group I member 2 (Homo sapiens, UniProt O75469)
Sequence (O75469 whole entry): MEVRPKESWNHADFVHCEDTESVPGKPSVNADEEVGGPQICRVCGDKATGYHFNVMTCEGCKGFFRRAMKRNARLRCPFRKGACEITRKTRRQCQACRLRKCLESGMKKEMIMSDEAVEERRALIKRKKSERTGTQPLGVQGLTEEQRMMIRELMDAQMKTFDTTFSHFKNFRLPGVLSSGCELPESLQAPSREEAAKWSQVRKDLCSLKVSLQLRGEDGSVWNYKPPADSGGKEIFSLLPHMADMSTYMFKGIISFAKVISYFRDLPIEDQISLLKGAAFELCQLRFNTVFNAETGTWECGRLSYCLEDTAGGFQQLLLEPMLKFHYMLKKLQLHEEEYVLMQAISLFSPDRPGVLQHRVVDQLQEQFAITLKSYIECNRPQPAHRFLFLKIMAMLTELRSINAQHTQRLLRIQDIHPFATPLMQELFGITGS
Assay: Activation of PXR (unknown origin)
Entry type: numeric. Quantity: pEC50, the -log10 of concentration in molar units.

Which pEC50 is reported for this compound? CS(=O)(=O)c1cc(C(F)(F)F)ccc1C(=O)N1CCC(N(C2CC2)S(=O)(=O)c2cccc(C(F)(F)F)c2)CC1
5.37

Now try CS(=O)(=O)c1ccc(Cl)c(C(=O)N2CCC(N(C3CC3)S(=O)(=O)c3cccc(C(F)(F)F)c3)CC2)c1 .
5.57

Now try CS(=O)(=O)c1ccc(C#N)cc1C(=O)N1CCC(N(C2CC2)S(=O)(=O)c2cccc(C(F)(F)F)c2)CC1 .
5.30

Now try CS(=O)(=O)c1ccc(C(=O)N2CCC(N(C3CC3)S(=O)(=O)c3cccc(C(F)(F)F)c3)CC2)c(OC(F)(F)F)c1 .
5.77

Now try CC(C)(C1CCN(C(=O)c2cc(F)ccc2S(C)(=O)=O)CC1)S(=O)(=O)c1cccc(C(F)(F)F)c1 .
5.60

Now try CS(=O)(=O)c1cc(C#N)ccc1C(=O)N1CCC(N(C2CC2)S(=O)(=O)c2cccc(C(F)(F)F)c2)CC1 .
5.08

---

Assay: Metabolic stability in rat liver microsomes assessed as compound remaining at 10 uM after 1 hr in presence of NADPH
Assay type: ADME
Conditions: read-out: Stability
Recorded endpoint: remaining at 1 h, 10 µM (%)
API: value field is a number in %; no unit string.

Which remaining at 1 h, 10 µM is reported for this compound? C[C@H]1[C@H](N(C2CC2)S(=O)(=O)c2cccc(C(F)(F)F)c2)CN1C(=O)c1ccc(S(C)(=O)=O)cc1Cl (racemic)
4.7

Now try CCN(C1CCN(C(=O)c2ccccc2OC(F)(F)F)CC1)S(=O)(=O)c1cccc(C(F)(F)F)c1 .
3.4

Now try CC(C)(C1CCN(C(=O)c2cc(F)ccc2S(C)(=O)=O)CC1)S(=O)(=O)c1cccc(C(F)(F)F)c1 .
68

Now try CC(C)(C1CCN(C(=O)c2ccc(S(C)(=O)=O)cc2OC(F)(F)F)CC1)S(=O)(=O)c1cccc(C(F)(F)F)c1 .
73

---

Experiment: Metabolic stability in human liver microsomes assessed as compound remaining at 10 uM after 1 hr in presence of NADPH
Type: ADME
Settings: read-out: Stability
Recorded endpoint: remaining at 1 h, 10 µM (%)
API: value field is a number in %; no unit string.

Which remaining at 1 h, 10 µM is reported for this compound? CC(C)(C1CCN(C(=O)c2cc(F)ccc2S(C)(=O)=O)CC1)S(=O)(=O)c1cccc(C(F)(F)F)c1
64

Now try CS(=O)(=O)c1cc(C(F)(F)F)ccc1C(=O)N1CCC2(CCN(S(=O)(=O)c3cccc(C(F)(F)F)c3)CC2)C1 .
8.5

Now try CN(C1CCN(C(=O)c2ccccc2S(C)(=O)=O)CC1)S(=O)(=O)c1cccc(C(F)(F)F)c1 .
26

Now try CCN(C1CCN(C(=O)c2ccccc2OC(F)(F)F)CC1)S(=O)(=O)c1cccc(C(F)(F)F)c1 .
30

Now try CC(C)(C1CCN(C(=O)c2ccc(S(C)(=O)=O)cc2OC(F)(F)F)CC1)S(=O)(=O)c1cccc(C(F)(F)F)c1 .
62

Now try C[C@H]1[C@H](N(C2CC2)S(=O)(=O)c2cccc(C(F)(F)F)c2)CN1C(=O)c1ccc(S(C)(=O)=O)cc1Cl (racemic) .
5.3

Now try CS(=O)(=O)c1ccc(C(=O)N2CC(N(C3CC3)S(=O)(=O)c3cccc(C(F)(F)F)c3)C2)c(C(F)(F)F)c1 .
78

Now try CS(=O)(=O)c1ccc(C(=O)N2CCC3(CCN(S(=O)(=O)c4cccc(C(F)(F)F)c4)CC3)C2)c(C(F)(F)F)c1 .
4.2

---

Consider the following compounds; for each one, report its pEC50.
Target: UniProt O75469
Test: Activation of PXR (unknown origin)
Entry type: numeric. Quantity: pEC50, the -log10 of concentration in molar units.

Which pEC50 is reported for this compound? CS(=O)(=O)c1ccc(C(=O)N2CCC(N(C3CC3)S(=O)(=O)c3cccc(C(F)(F)F)c3)CC2)c(Cl)c1
4.97

Now try NC(=O)c1ccc(C(=O)N2CCC(N(C3CC3)S(=O)(=O)c3cccc(C(F)(F)F)c3)CC2)c(C(F)(F)F)c1 .
5.72

Now try CS(=O)(=O)c1ccc(C(=O)N2CCC(N(C3CC3)S(=O)(=O)c3cccc(C(F)(F)F)c3)CC2)c(C(F)(F)F)c1 .
5.55

Now try CS(=O)(=O)c1ccc(C(=O)N2CCC(N(C3CC3)S(=O)(=O)c3cccc(C(F)(F)F)c3)CC2)c(F)c1 .
5.17

---

Consider the following molecules; for each one, report its inhibition at 10 µM.
Target: UniProt:P08684
Assay: Inhibition of CYP3A4 (unknown origin) at 10 uM relative to control
Format: ADME
API: value field is a number in %; no unit string.

Query for UniProt:P08684: what inhibition at 10 µM does the record show for CS(=O)(=O)c1ccc(C(=O)N2CCC(N(C3CC3)S(=O)(=O)c3cccc(C(F)(F)F)c3)CC2)c(C(F)(F)F)c1 ?
75

Now try CS(=O)(=O)c1ccc(C#N)cc1C(=O)N1CCC(N(C2CC2)S(=O)(=O)c2cccc(C(F)(F)F)c2)CC1 .
59

Now try CS(=O)(=O)c1ccc(C(=O)N2CCC(N(C3CC3)S(=O)(=O)c3cccc(C(F)(F)F)c3)CC2)c(Cl)c1 .
78

Now try CS(=O)(=O)c1cc(C(F)(F)F)ccc1C(=O)N1CCC(N(C2CC2)S(=O)(=O)c2cccc(C(F)(F)F)c2)CC1 .
78

Now try NC(=O)c1ccc(C(=O)N2CCC(N(C3CC3)S(=O)(=O)c3cccc(C(F)(F)F)c3)CC2)c(C(F)(F)F)c1 .
61

Now try NC(=O)c1ccc(C(=O)N2CCC(N(C3CC3)S(=O)(=O)c3cccc(C(F)(F)F)c3)CC2)c(OC(F)(F)F)c1 .
60

---

Target: CYP3A4 (Homo sapiens)
Sequence (P08684 whole entry): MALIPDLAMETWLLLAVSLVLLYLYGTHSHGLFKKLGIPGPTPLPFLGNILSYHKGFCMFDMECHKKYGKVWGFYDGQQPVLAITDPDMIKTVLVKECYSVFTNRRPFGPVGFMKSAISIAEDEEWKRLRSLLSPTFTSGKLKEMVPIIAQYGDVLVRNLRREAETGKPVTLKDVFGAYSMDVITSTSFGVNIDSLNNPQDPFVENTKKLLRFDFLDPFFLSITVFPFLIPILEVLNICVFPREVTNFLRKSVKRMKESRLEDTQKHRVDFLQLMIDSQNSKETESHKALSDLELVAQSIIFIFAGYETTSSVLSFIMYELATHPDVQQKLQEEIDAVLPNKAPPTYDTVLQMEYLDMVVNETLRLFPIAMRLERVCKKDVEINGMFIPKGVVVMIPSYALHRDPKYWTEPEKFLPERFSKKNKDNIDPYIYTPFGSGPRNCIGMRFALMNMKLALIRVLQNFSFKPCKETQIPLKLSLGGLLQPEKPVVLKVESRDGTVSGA
Assay: Inhibition of CYP3A4 (unknown origin) at 10 uM relative to control
Type: ADME
Consider the following compounds; for each one, report its inhibition at 10 µM.
API: value field is a number in %; no unit string.

Which inhibition at 10 µM is reported for this compound? CS(=O)(=O)c1ccc(C(=O)N2CCC(N(C3CC3)S(=O)(=O)c3cccc(C(F)(F)F)c3)CC2)c(OC(F)(F)F)c1
16

Now try CS(=O)(=O)c1ccc(Cl)c(C(=O)N2CCC(N(C3CC3)S(=O)(=O)c3cccc(C(F)(F)F)c3)CC2)c1 .
69

Now try CS(=O)(=O)c1cc(C#N)ccc1C(=O)N1CCC(N(C2CC2)S(=O)(=O)c2cccc(C(F)(F)F)c2)CC1 .
86

Now try CS(=O)(=O)c1ccc(F)cc1C(=O)N1CCC(N(C2CC2)S(=O)(=O)c2cccc(C(F)(F)F)c2)CC1 .
75
